- Test system: EMC-BAC-2
- Protocol: relative viability (nuclei count vs DMSO), 5 days (fraction); higher = more cells survive
- Run Parameters: first compound 0.03162 µM
Kindly supply the reported relative viability values for the records listed here.
Numbers only.

[
  {
    "Compound": "NC(=O)Nc1cc(-c2cccc(F)c2)sc1C(=O)N[C@H]1CCCNC1 [AZD7762] + O=C(CCCCCCC(=O)Nc1ccccc1)NO [Vorinostat] (partner 1 µM)",
    "relative viability": 0.475
  },
  {
    "Compound": "NC(=O)Nc1cc(-c2cccc(F)c2)sc1C(=O)N[C@H]1CCCNC1 [AZD7762] + C[C@@H](Oc1cc(-c2cnn(C3CCNCC3)c2)cnc1N)c1c(Cl)ccc(F)c1Cl [Crizotinib] (partner 1 µM)",
    "relative viability": 0.718
  },
  {
    "Compound": "NC(=O)Nc1cc(-c2cccc(F)c2)sc1C(=O)N[C@H]1CCCNC1 [AZD7762] + Cc1nc(Nc2ncc(C(=O)Nc3c(C)cccc3Cl)s2)cc(N2CCN(CCO)CC2)n1 [Dasatinib] (partner 0.075 µM)",
    "relative viability": 0.37
  }
]

Turning now to a further record.
Recorded relative viability for NC(=O)Nc1cc(-c2cccc(F)c2)sc1C(=O)N[C@H]1CCCNC1 [AZD7762] + COc1cc2c(Oc3ccc(NC(=O)C4(C(=O)Nc5ccc(F)cc5)CC4)cc3F)ccnc2cc1OCCCN1CCOCC1 [Foretinib] (partner 0.25 µM) with EMC-BAC-2, please?
1

---

- Test system: NCI-H1755
- Protocol: relative viability (nuclei count vs DMSO), 5 days (fraction); higher = more cells survive
- Run Parameters: first compound 0.253 µM
Kindly supply the reported relative viability values for the records listed here.
Answers are plain numbers.

Take a look at these entries with their results.
[
  {
    "Molecule": "C=C1C(=O)O[C@@H](CCCCCCCC)[C@@H]1C(=O)O [C-75] + CC(=O)c1c(C)c2cnc(Nc3ccc(N4CCNCC4)cn3)nc2n(C2CCCC2)c1=O [Palbociclib] (partner 0.5 µM)",
    "Numeric Result": 0.428
  },
  {
    "Molecule": "C=C1C(=O)O[C@@H](CCCCCCCC)[C@@H]1C(=O)O [C-75] + Cc1nc(NC(=O)N2CCC[C@H]2C(N)=O)sc1-c1ccnc(C(C)(C)C(F)(F)F)c1 [Alpelisib] (partner 2 µM)",
    "Numeric Result": 0.823
  },
  {
    "Molecule": "C=C1C(=O)O[C@@H](CCCCCCCC)[C@@H]1C(=O)O [C-75] + O=C(CCCCCCC(=O)Nc1ccccc1)NO [Vorinostat] (partner 1 µM)",
    "Numeric Result": 0.868
  }
]

Record relative viability for all entries; do not skip any.
1. C=C1C(=O)O[C@@H](CCCCCCCC)[C@@H]1C(=O)O [C-75] + Cc1cc(Nc2cc(N3CCN(C)CC3)nc(Sc3ccc(NC(=O)C4CC4)cc3)n2)n[nH]1 [Tozasertib] (partner 0.1 µM)
2. C=C1C(=O)O[C@@H](CCCCCCCC)[C@@H]1C(=O)O [C-75] + O=C(c1cc(Cc2n[nH]c(=O)c3ccccc23)ccc1F)N1CCN(C(=O)C2CC2)CC1 [Olaparib] (partner 8 µM)

1: 0.638; 2: 0.872
